Biological target: gH/gL of HCMV strain AD169 (on virus AD169 and on reporter virus AD169R) (human cytomegalovirus (strain AD169), UniProt P12824 24-743; P16832 31-278)
Experiment: cell-based or functional assay
Listing of recorded IC50(HTR-svNeo) AD169R, virus neutralization by entry.
MEASUREMENT_LABEL: IC50(HTR-svNeo) AD169R, virus neutralization (µg/mL)

INSERT INTO results (binder, output_unit, reported_measurement) VALUES
  ('15G11 (antibody, V domains shown, also called 15G11 (ms); anti-gH mAb 15G11) VH: QVQLQESGPGLVKPSQTLSLTCTVSGGSISSGYYYWNWIRQHPGKGLECIGYIYYSGTTYYNPSLKSRLFISVDTSKNQFSLKLRSVTAADTAVYYCARGGLGAFDIWGQGTMVTVSS VL: EIVLTQSPGTLSLSPGERATLSCRASQSVSSSYLAWYQQKPGQAPRLLIYGASSRAPGIPDRFSGTGSGTDFTLTISRLEPEDFAVYYCQQYGISPLTFGGGTKVEIK', 'µg/mL', 0.44),
  ('14E1 (antibody, V domains shown, also called 14E1 (ms)) VH: QVQLVQSGAEVKKPGASVKVSCKASGYTFTSYSISWVRQAPGQGLEWMGWINTYNGNTNYAQRVQARVTMTTDTSTSTAYMELRSLRSDDTAVYYCARDHGFFFDYWGQGNLVTVSS VL: DIQLTQSPSFLSASVGDRVTITCWASQGISSYLAWYQQKPGKAPKLLIYAASTLQSGVPSRFSGSGSGTEFTLTISSLQPEDFATYYCQQLNSYPYTFGQGTQLEIK', 'µg/mL', 19.2),
  ('13G1 (antibody, V domains shown, also called 13G1 (ms); anti-gH mAb 13G1) VH: QVTLKESGPVLVKPTETLTLTCTVSGFSLYNARMGVTWIRQPPGKALEWLAHIFSNDERSYTSSLKNRLTISKDTSKSQVVLTMTNMDPVDTATYYCARIDYSNYIGNWFDPWGQGTLVTVSS VL: DIQMTQSPSSLSASVGDRVTITCRASQSISNYLNWYQQKPGKAPKLLIYAASSLQGGVPSRFSGSGSGTDFTLTISSLQPEDFTTYYCQQSYSTPFTFGGGTKVEIK', 'µg/mL', 1.82);

The origin of these recorded values is patent US20250129140A1.
